Measured residual activity of individual entries
- SYSTEM: DYRK4 (human) (UniProt Q9NR20)
- Sequence (Q9NR20 whole entry, looked up): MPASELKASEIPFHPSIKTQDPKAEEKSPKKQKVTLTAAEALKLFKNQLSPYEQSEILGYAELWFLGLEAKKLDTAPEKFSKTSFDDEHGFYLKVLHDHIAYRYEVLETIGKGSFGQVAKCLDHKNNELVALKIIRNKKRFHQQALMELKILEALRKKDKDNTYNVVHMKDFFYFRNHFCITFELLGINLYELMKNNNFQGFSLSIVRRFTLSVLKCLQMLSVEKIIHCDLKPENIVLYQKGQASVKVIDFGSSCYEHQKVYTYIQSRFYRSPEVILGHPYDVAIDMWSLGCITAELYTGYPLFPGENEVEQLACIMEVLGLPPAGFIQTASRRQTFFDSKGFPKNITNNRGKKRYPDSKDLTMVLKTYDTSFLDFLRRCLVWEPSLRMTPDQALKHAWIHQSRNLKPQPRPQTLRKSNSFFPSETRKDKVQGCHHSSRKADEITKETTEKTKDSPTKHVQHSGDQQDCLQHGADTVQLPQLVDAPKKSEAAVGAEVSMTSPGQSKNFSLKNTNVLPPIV
- PROCEDURE TEXT: radiometric filter-binding kinase assay, Kinase HotSpot
- SETUP CONDITIONS: compound 0.5 µM; ATP 10 µM
Give a bare numeral; the unit % is implied.

A selection of reference data follows.
{"columns": ["MOL SMILES", "UNIT ABBREV", "residual activity"],
 "data": [
  ["O=C(c1ccccc1)c1ccc(N2CCOCC2)cc1O", "%", 94.9],
  ["N#CCCc1ccc2c(c1)-c1[nH]c3ccc([N+](=O)[O-])cc3c1CC(=O)N2", "%", 100],
  ["N#C/C(=C1/Nc2ccccc2S1)c1ccnc(NCCc2cccnc2)n1", "%", 65],
  ["O=C1NC(=O)c2c1c1c3ccccc3[nH]c1c1[nH]c3cc(Br)ccc3c21", "%", 86],
  ["CCOc1cc2ncnc(Nc3cccc(Br)c3)c2cc1OCC", "%", 96.9],
  ["O=C(O)c1ccc2c3c1cccc3c(=O)n1c3ccccc3nc21", "%", 95.9],
  ["CCc1nc(-c2ccc(OC)cc2)[nH]c1-c1ccncc1", "%", 100],
  ["Nc1ncnc2c1cnn2-c1ccccc1", "%", 98.4],
  ["CCCCc1c(-c2ccc(O)cc2)[nH]c2nccnc12", "%", 99.7],
  ["Cn1cc(/C=C2\\C(=O)Nc3ccc(S(N)(=O)=O)cc32)c2ccccc21", "%", 73.7]
]}

Lookup: residual activity / DYRK4 (human) (UniProt Q9NR20) / O=S(=O)(NCCNC/C=C/c1ccc(Br)cc1)c1cccc2cnccc12 96.4

Which residual activity is reported with DYRK4 (human) (UniProt Q9NR20) for this entry: O=c1[nH]c2ccccc2n1C1CCN(Cc2ccc(-c3nc4cc5[nH]cnc5cc4nc3-c3ccccc3)cc2)CC1 ? 109

Test system DYRK4 (human) (UniProt Q9NR20); read-out residual activity; what value for COc1cc2ncnc(Nc3ccc(O)c(Br)c3)c2cc1OC ? 101

Lab note: need residual activity for COc1cc2c(Nc3ccc(Br)cc3F)ncnc2cc1OCC1CCN(C)CC1 on DYRK4 (human) (UniProt Q9NR20), anyone have it? 102

Test system DYRK4 (human) (UniProt Q9NR20); read-out residual activity; what value for COc1cc2c(cc1OC)-c1[nH]nc(Nc3cccc(F)c3)c1C2 ? 92.6

What reported residual activity corresponds to COc1cccc(-c2cc(=O)c3ccccc3o2)c1N on DYRK4 (human) (UniProt Q9NR20)? 108

Given the entry O=c1c2ccccc2[nH]c(=S)n1CCN1CCC(=C(c2ccc(F)cc2)c2ccc(F)cc2)CC1 , what residual activity was observed with DYRK4 (human) (UniProt Q9NR20)? 97.5

Please state recorded residual activity (tested on DYRK4 (human) (UniProt Q9NR20)) of FC(F)(F)c1ccc(/C=C/c2nc(COc3ccc(CCCCn4ccnn4)cc3)co2)cc1 101

Give recorded residual activity with DYRK4 (human) (UniProt Q9NR20) for the following compound: O=C1NC(=O)c2cc(Nc3ccc(F)cc3)c(Nc3ccc(F)cc3)cc21 98.6

Give residual activity (DYRK4 (human) (UniProt Q9NR20)) of the following compound: Cc1cc(Nc2nc(-c3ccccc3)nc3ccccc23)n[nH]1 103

Recall the recorded residual activity for COc1cc2c(N3CCN(C(=O)Nc4ccc(OC(C)C)cc4)CC3)ncnc2cc1OCCCN1CCCCC1 with DYRK4 (human) (UniProt Q9NR20) and state it. 101

// map c1ccc(-c2cnc(Nc3ccc(OCCN4CCCC4)cc3)s2)cc1 to recorded residual activity (system: DYRK4 (human) (UniProt Q9NR20)) 99.4

====

- SYSTEM: HIPK1 (human)
- PROCEDURE TEXT: radiometric filter-binding kinase assay, Kinase HotSpot
- SETUP CONDITIONS: compound 0.5 µM; ATP 10 µM
QUANTITY NAME: residual activity
Answers without a unit are incomplete; give the number and then its unit.

Worked set:
{"columns": ["MOL SMILES", "SYSTEM", "residual activity"],
 "data": [
  ["CCCCc1c(-c2ccc(O)cc2)[nH]c2nccnc12", "HIPK1 (human)", "97.6%"],
  ["O=c1[nH]c2ccccc2n1C1CCN(Cc2ccc(-c3nc4cc5[nH]cnc5cc4nc3-c3ccccc3)cc2)CC1", "HIPK1 (human)", "106%"],
  ["COc1cc2c(N3CCN(C(=O)Nc4ccc(OC(C)C)cc4)CC3)ncnc2cc1OCCCN1CCCCC1", "HIPK1 (human)", "98.9%"],
  ["Cc1cc(Nc2nc(-c3ccccc3)nc3ccccc23)n[nH]1", "HIPK1 (human)", "96.3%"],
  ["N#C/C(=C1/Nc2ccccc2S1)c1ccnc(NCCc2cccnc2)n1", "HIPK1 (human)", "109%"]
]}

residual activity for COc1cccc(-c2cc(=O)c3ccccc3o2)c1N ? 104%

Which value of residual activity has been reported for Nc1ncnc2c1cnn2-c1ccccc1 in the records? 98.4%

Tell me the measured residual activity of CCc1nc(-c2ccc(OC)cc2)[nH]c1-c1ccncc1 , please. 97.7%

What value of residual activity has been recorded for this entry: O=C(O)c1ccc2c3c1cccc3c(=O)n1c3ccccc3nc21 104%

Please give the measured residual activity for this compound: COc1cc2c(Nc3ccc(Br)cc3F)ncnc2cc1OCC1CCN(C)CC1 96.7%

Record request: residual activity value, item O=c1cc(N2CCOCC2)oc2c(-c3ccccc3)cccc12 111%

====

- SYSTEM: PRKCE (human) (UniProt Q02156)
- Sequence (Q02156 whole entry, looked up): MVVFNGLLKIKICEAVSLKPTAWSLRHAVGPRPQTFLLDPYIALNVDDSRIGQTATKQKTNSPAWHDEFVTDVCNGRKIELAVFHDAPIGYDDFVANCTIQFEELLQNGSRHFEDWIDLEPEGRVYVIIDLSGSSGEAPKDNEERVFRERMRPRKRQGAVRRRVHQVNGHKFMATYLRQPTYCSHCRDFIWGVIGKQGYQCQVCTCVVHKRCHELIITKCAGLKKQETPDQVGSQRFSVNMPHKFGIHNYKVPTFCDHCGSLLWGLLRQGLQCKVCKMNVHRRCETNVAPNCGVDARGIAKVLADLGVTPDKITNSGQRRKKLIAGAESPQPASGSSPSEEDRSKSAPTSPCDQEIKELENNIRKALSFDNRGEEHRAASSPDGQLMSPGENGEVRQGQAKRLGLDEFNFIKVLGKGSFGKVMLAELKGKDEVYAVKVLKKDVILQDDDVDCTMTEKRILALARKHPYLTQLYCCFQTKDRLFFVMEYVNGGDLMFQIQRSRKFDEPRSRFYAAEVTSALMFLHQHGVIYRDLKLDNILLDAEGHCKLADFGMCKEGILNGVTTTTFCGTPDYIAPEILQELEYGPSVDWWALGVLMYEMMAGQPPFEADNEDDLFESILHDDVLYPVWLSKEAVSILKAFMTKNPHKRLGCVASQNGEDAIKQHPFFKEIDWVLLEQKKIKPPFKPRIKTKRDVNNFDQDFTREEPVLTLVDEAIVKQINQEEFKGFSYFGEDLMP
- PROCEDURE TEXT: radiometric filter-binding kinase assay, Kinase HotSpot
- SETUP CONDITIONS: compound 0.5 µM; ATP 10 µM
Catalogue of residual activity readings, one per entry.
Your answer is read as %, so omit the unit and give the number.

Answered examples (2):
{"columns": ["MOL SMILES", "QUANTITY NAME", "UNIT ABBREV", "OBSERVED RESULT"],
 "data": [
  ["Cc1cc(Nc2nc(-c3ccccc3)nc3ccccc23)n[nH]1", "residual activity", "%", 87.1],
  ["CCc1nc(-c2ccc(OC)cc2)[nH]c1-c1ccncc1", "residual activity", "%", 101]
]}

// returns reported residual activity for input O=C1NC(=O)c2cc(Nc3ccc(F)cc3)c(Nc3ccc(F)cc3)cc21 97.8

Item under review: N#CCCc1ccc2c(c1)-c1[nH]c3ccc([N+](=O)[O-])cc3c1CC(=O)N2 . Reported residual activity? 95.4

# residual activity lookup, item COc1cc2c(Nc3ccc(Br)cc3F)ncnc2cc1OCC1CCN(C)CC1 100

====

- SYSTEM: MAP3K7 TAB1 (human) (UniProt O43318+Q15750)
- Sequence (O43318 whole entry, looked up): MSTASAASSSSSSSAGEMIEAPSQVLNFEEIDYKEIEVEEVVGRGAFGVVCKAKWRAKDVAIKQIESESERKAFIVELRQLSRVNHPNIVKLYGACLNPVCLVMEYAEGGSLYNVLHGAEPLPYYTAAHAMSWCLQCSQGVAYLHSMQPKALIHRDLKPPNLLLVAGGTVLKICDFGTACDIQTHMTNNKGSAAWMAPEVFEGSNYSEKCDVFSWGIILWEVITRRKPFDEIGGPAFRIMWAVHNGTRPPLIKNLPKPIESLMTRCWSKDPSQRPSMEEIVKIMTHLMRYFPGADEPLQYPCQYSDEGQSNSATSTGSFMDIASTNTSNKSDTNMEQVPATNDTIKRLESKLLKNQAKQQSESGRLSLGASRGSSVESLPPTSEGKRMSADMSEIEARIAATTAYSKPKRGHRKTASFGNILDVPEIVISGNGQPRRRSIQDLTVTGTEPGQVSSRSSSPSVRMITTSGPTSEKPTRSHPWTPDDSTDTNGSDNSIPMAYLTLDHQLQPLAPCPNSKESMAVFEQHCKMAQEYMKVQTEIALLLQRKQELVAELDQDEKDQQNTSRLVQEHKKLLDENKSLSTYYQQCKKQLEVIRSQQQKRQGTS
- Sequence (Q15750 whole entry, looked up): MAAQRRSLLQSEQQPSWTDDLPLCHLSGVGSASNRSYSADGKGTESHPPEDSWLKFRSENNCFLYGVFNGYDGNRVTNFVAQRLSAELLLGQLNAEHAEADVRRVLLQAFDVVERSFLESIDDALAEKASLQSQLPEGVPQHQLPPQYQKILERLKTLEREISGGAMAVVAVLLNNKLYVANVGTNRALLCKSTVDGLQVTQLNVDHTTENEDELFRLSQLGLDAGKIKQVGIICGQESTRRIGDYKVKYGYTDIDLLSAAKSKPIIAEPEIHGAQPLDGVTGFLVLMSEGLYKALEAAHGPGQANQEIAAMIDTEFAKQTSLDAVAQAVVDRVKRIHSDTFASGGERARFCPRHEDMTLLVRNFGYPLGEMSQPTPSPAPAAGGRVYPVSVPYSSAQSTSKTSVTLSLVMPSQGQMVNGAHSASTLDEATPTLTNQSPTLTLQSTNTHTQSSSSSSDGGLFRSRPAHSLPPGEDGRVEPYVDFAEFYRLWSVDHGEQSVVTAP
- PROCEDURE TEXT: radiometric filter-binding kinase assay, Kinase HotSpot
- SETUP CONDITIONS: compound 0.5 µM; ATP 10 µM
QUANTITY NAME: residual activity (%)
Entry rule: numbers only, all in %.

Solved cases (8 shown):
{"columns": ["MOL SMILES", "UNIT ABBREV", "residual activity"],
 "data": [
  ["N#Cc1c(NC(=O)c2cccc3ccccc23)sc2c1CCCC2", "%", 99.7],
  ["COc1cc2c(N3CCN(C(=O)Nc4ccc(OC(C)C)cc4)CC3)ncnc2cc1OCCCN1CCCCC1", "%", 91.8],
  ["COc1cc2c(cc1OC)-c1[nH]nc(Nc3cccc(F)c3)c1C2", "%", 94],
  ["O=c1c(-c2ccc(F)cc2)c(-c2ccncc2)[nH]n1-c1ccc(Cl)cc1", "%", 100],
  ["Nc1ncnc2c1cnn2-c1ccccc1", "%", 98.9],
  ["N#CCCc1ccc2c(c1)-c1[nH]c3ccc([N+](=O)[O-])cc3c1CC(=O)N2", "%", 38.1],
  ["N/C(=N\\N=C/c1ccc(-c2cccc([N+](=O)[O-])c2)o1)N[N+](=O)[O-]", "%", 91.5],
  ["COc1cc2ncnc(Nc3ccc(O)c(Br)c3)c2cc1OC", "%", 100]
]}

Request - read-out residual activity | tested on MAP3K7 TAB1 (human) (UniProt O43318+Q15750) | compound COc1cc2c(Nc3ccc(Br)cc3F)ncnc2cc1OCC1CCN(C)CC1 93.9

Record CC(C)(C)n1nc(Cc2cccc3ccccc23)c2c(N)ncnc21 : what is its residual activity with MAP3K7 TAB1 (human) (UniProt O43318+Q15750)? 99

residual activity of FC(F)(F)c1ccc(/C=C/c2nc(COc3ccc(CCCCn4ccnn4)cc3)co2)cc1 on MAP3K7 TAB1 (human) (UniProt O43318+Q15750)? 88.7

Kindly state the measured residual activity obtained for O=c1cc(N2CCOCC2)oc2c(-c3ccccc3)cccc12 with MAP3K7 TAB1 (human) (UniProt O43318+Q15750). 85.4

Test system MAP3K7 TAB1 (human) (UniProt O43318+Q15750); read-out residual activity; what value for O=C(c1ccccc1)c1ccc(N2CCOCC2)cc1O ? 101

Query for MAP3K7 TAB1 (human) (UniProt O43318+Q15750): what residual activity does the record show for O=C(O)c1ccc2c3c1cccc3c(=O)n1c3ccccc3nc21 ? 74.4

Notebook: pull reported residual activity for MAP3K7 TAB1 (human) (UniProt O43318+Q15750), entry O=C1NC(=O)c2cc(Nc3ccc(F)cc3)c(Nc3ccc(F)cc3)cc21 98.8
